Tgt: human lung fibroblast collagenase
Method Summary: Collagenase inhibitor assay (human lung fibroblast collagenase, 14C-acetylated Type I collagen fibril degradation)
Applied Conditions: Inhibition of human lung fibroblast collagenase (purified from WI-38 culture supernatants); 14C-acetylated rat skin Type I collagen substrate; 37°C overnight; read-out: IC₅₀
Quantity: IC50 (nM)

{"Molecule": "CCCCC(N[C@@H](CC(C)C)C(=O)NC1CCCCCCCCCCNC1=O)P(=O)(O)O (stereo partly drawn) [Example E8]", "IC50 [nM]": 9490}

(A) CC[C@H](N[C@@H](CC(C)C)C(=O)NC1CCCCCCCCCCNC1=O)P(=O)(O)O (single isomer, unassigned) [Example E4]
(B) CC[C@@H](N[C@@H](CC(C)C)C(=O)NC1CCCCCCCCCCNC1=O)P(=O)(O)O (single isomer, unassigned) [Example E3C]
Exercise: Which value of IC50 is numerically greater: that of A or that of B ? Indicate your choice by writing its label.
Solution: A
(A: 166 nM, B: 45 nM)
